# Test system: LG0567-F671-PDC KRAS tumor spheroid viability;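 note: drug exposure lasted seven days after spheroids formed for three days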
# METHOD: Anticancer human tumor LG0567-F671-PDC patient-derived lung adenocarcinoma cell line growth inhibition [KRAS2]; active = viability on the fitted dose curve at most 10% of control; inactive = the rest
# CONDITION_DESCRIPTION: second compound 1 µM; first compound 3.16 µM; spheroids with HUVEC and MSC
Assign a class; possible classes are active, inactive

Cn1nccc1Nc1nccc(-c2cc3c(s2)C(C)(C)N(CCN2CCOCC2)C3=O)n1 + CC1OCC2(CCN(c3cnc(Sc4ccnc(N)c4Cl)c(N)n3)CC2)C1N = inactive
Cn1nccc1Nc1nccc(-c2cc3c(s2)C(C)(C)N(CCN2CCOCC2)C3=O)n1 + C=CC(=O)N1CCN(c2nc(OCC3CCCN3C)nc3c2CCN(c2cccc4cccc(C)c24)C3)CC1CC#N = inactive

How did this test come out for COc1cc(Nc2ncc3c(n2)-c2ccc(Cl)cc2C(c2c(F)cccc2OC)=NC3)ccc1C(=O)O + COc1cc2nc(C)nc(NC(C)c3cc(N)cc(C(F)(F)F)c3)c2cc1OC1CCOC1 ?
inactive

How did this test come out for CC1OCC2(CCN(c3cnc(Sc4ccnc(N)c4Cl)c(N)n3)CC2)C1N (stereo not given) + C=CC(=O)N1CCN(c2nc(OCC3CCCN3C)nc3c2CCN(c2cccc4cccc(C)c24)C3)CC1CC#N ?
active

How did this test come out for COc1cc(Nc2ncc3c(n2)-c2ccc(Cl)cc2C(c2c(F)cccc2OC)=NC3)ccc1C(=O)O + C=CC(=O)N1CCN(c2nc(=O)n(-c3c(C)ccnc3C(C)C)c3nc(-c4c(O)cccc4F)c(F)cc23)C(C)C1 ?
inactive

Sourced from PubChem BioAssay AID1963856
